Origin of the recorded values: patent US5232917A

# measuredOn: GABA receptor-chloride ionophore complex (GR complex)
# protocolSummary: [35S]TBPS binding modulation assay
# assayConditions: read-out: IC50, inhibition of [35S]-TBPS binding, +5 μM GABA; in the presence of 5 μM GABA
measuredQuantity: pIC50
Quick note: pIC50 values are minus log10 of concentrations in mol/L.

Some solved cases for reference:
molecule: C[C@]12CC[C@@H](O)C[C@@H]1CC[C@@H]1[C@@H]2CC[C@]2(C)[C@@H](C(=O)O)CC[C@@H]12 [3α-HYDROXY-5α-ANDROSTAN-17β-CARBOXYLATE]
measValue: 5.57
//
molecule: C[C@]12CC[C@@H](O)C[C@H]1CC[C@@H]1[C@@H]2CC[C@]2(C)[C@@H](C(=O)CO)CC[C@@H]12
measValue: 7.00
//
molecule: C[C@@H](O)[C@H]1CC[C@H]2[C@@H]3CC[C@H]4C[C@H](O)CC[C@]4(C)[C@H]3CC[C@]12C
measValue: 6.00
//
molecule: CC(=O)[C@H]1CC[C@H]2[C@@H]3CC[C@H]4C[C@@](C)(O)CC[C@]4(C)[C@H]3CC[C@]12C [3β-HYDROXY-3α-METHYL-5α-PREGNAN-20-ONE, 3β-HYDROXY-3α-METHYL-5α- PREGNAN-20-ONE]
measValue: 5.13

Kindly note the recorded pIC50 for CC(=O)C1=CC[C@H]2[C@@H]3CC[C@@H]4C[C@H](O)CC[C@]4(C)[C@H]3CC[C@]12C [3α-HYDROXY-5β-PREGN-16-EN-20-ONE] , which is 6.00
